Test: qHTS assay to identify small molecule agonists of the estrogen related receptor (ERR) signaling pathway from Tox21 library (AID 1224849); note: nearly all actives have a fitted effect of over 15% in size
Conditions: ERR reporter cell line, ONE-Glo luciferase, 18 h; at 92.4 µM (top of the series) unless noted
Experimental: National Center for Advancing Translational Sciences [NCATS] NIH Chemical Genomics Center [NCGC] U.S. Environmental Protection Agency [EPA] National Institutes of Environmental Health Sciences [NIEHS] National Toxicology Program [NTP] […] The ERR cells were dispensed at 2,000 cells/5 ul/well in 1536-well white plates using a Multidrop dispenser. […] After 30-minute incubation at room temperature, the luminescence intensity in the plates was measured using a ViewLux plate reader.
The source made the active and inactive calls. Calls come from the whole dose curve.
Please answer using one outcome listed in class 1 (active), class 0 (inactive)

compound=CN1CCC(Nc2ncc3ncnc(Nc4ccc(F)c(Cl)c4)c3n2)CC1 answer_label="class 0"

Given "CC(=O)N1CCN(c2ccc(OC[C@H]3CO[C@](Cn4ccnc4)(c4ccc(Cl)cc4Cl)O3)cc2)CC1" , state the outcome it received in this test.
class 0

Given "N=C1N=C(N)c2cc3ccccc3cc21" , state the outcome it received in this test.
class 1

Given "O=C1CCCCCN1SSN1CCCCCC1=O" , state the outcome it received in this test.
class 0

Given "O=C(Nc1cccc([N+](=O)[O-])c1)c1cc2ccccc2cc1O" , state the outcome it received in this test.
class 0

Given Cc1cccc(N(C)C(=S)Oc2ccc3c(c2)C2CCC3C2)c1 (stereo not drawn) , state the outcome it received in this test.
class 0

Given "CS(=O)(=O)CCNCc1ccc(-c2ccc3ncnc(Nc4ccc(OCc5cccc(F)c5)c(Cl)c4)c3c2)o1" , state the outcome it received in this test.
class 0

Given "Clc1ccc2cc3ccccc3cc2c1" , state the outcome it received in this test.
class 0

Given CC(C)(C)C1CCC(CC2=C(O)c3ccccc3C(=O)C2=O)CC1 (stereo not drawn) , state the outcome it received in this test.
class 0

Given "COc1cccc2c1C(=O)c1c(O)c3c(c(O)c1C2=O)C[C@@](O)(C(=O)CO)C[C@@H]3O[C@H]1C[C@H](N)[C@H](O[C@@H]2CCCCO2)[C@H](C)O1" , state the outcome it received in this test.
class 0

Given CCCN(CCC)C(=O)C(CCC(=O)OCCCN1CCN(CCOC(=O)Cc2c(C)n(C(=O)c3ccc(Cl)cc3)c3ccc(OC)cc23)CC1)NC(=O)c1ccccc1 (stereo not drawn) , state the outcome it received in this test.
class 0

Given "CNc1ccc(O)cc1" , state the outcome it received in this test.
class 0

Given CCCCCCCCNC(C)C(O)c1ccc(SC(C)C)cc1 (stereo not drawn) , state the outcome it received in this test.
class 0

Given "O=C(NOCC1CC1)c1ccc(F)c(F)c1Nc1ccc(I)cc1Cl" , state the outcome it received in this test.
class 0

Given "O=[N+]([O-])c1cc(Cl)c(Cl)c(Cl)c1Cl" , state the outcome it received in this test.
class 0

Given "Cc1onc(-c2c(Cl)cccc2Cl)c1C(=O)N[C@@H]1C(=O)N2[C@@H]1SC(C)(C)[C@@H]2C(=O)O" , state the outcome it received in this test.
class 0

Given "Cc1cc(O)c(Cl)c(C)c1Cl" , state the outcome it received in this test.
class 0

Given "CCCCCCCCCCC=O" , state the outcome it received in this test.
class 0

Given "N/C(=N\N=C\c1ccc(Cl)cc1)N/N=C/c1ccc(Cl)cc1" , state the outcome it received in this test.
class 0

Given "CCCCCCCCCCCCCCCC(=O)OC[C@H](O)[C@H]1OC(=O)C(O)=C1O" , state the outcome it received in this test.
class 0

Given "O=C(N/N=C/c1ccccc1O)c1ccncc1" , state the outcome it received in this test.
class 0

Given "O=C1c2ccccc2Cc2ccccc21" , state the outcome it received in this test.
class 0

Given CCC(C)(C)C1CCCCC1OC(C)=O (stereo not drawn) , state the outcome it received in this test.
class 0
